Test: Pharmacokinetic parameter AUC(area under curve) was determined in male Wistar rat after 100 mg/kg oral dose of the compound
Format: ADME, organism-based
Set-up: dose 100 mg/kg, route oral
Conditions: in vivo
quantity: AUC (ng·h/mL)

COc1ccc(-c2cc(C(F)(F)F)nn2-c2ccc(S(N)(=O)=O)cc2F)cc1 = 46400
CS(=O)(=O)c1ccc(C2=C(c3ccccc3)C(=O)OC2)cc1 = 57900

(1) Cc1ccc(-c2cc(C(F)(F)F)nn2-c2ccc(S(N)(=O)=O)cc2)cc1
(2) CSc1ccc(-c2cc(C(F)(F)F)nn2-c2ccc(S(N)(=O)=O)cc2F)cc1
Query block: Which gives the smaller AUC number: 1 or 2 ? Write down the label of the entry you select.
Result block: 2

---

Molecular target: Prostaglandin G/H synthase 1 (Ovis aries)
Sequence (P05979 whole entry): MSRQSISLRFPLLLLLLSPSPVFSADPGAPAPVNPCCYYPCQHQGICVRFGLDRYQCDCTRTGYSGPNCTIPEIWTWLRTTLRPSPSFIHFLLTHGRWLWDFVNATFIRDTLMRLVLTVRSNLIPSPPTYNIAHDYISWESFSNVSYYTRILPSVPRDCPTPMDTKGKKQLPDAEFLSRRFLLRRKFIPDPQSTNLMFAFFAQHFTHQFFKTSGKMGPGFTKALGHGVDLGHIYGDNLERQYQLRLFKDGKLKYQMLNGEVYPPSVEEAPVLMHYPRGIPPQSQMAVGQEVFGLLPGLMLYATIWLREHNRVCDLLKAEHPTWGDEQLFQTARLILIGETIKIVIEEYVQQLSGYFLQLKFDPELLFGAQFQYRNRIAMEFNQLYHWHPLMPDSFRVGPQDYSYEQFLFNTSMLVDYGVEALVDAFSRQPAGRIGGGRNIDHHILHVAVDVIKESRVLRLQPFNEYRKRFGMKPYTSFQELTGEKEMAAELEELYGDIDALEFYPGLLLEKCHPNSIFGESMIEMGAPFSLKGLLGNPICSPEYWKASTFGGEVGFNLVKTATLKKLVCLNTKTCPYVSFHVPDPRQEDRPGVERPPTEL
quantity: IC50

Note to self: IC50 recorded for COc1ccc(-c2cc(C(F)(F)F)nn2-c2ccc(S(N)(=O)=O)c(F)c2)cc1 was > 170 µM

---

Experiment: Partition coefficient (logP)
Format: physicochemical
Conditions: octanol/water
quantity: logP

Cc1ccc(-c2cc(C(F)(F)F)nn2-c2ccc(S(N)(=O)=O)cc2)cc1 = 3.01
CSc1ccc(-c2cc(C(F)(F)F)nn2-c2ccc(S(N)(=O)=O)cc2F)cc1 = 3.81
COc1ccc(-c2cc(C(F)(F)F)nn2-c2ccc(S(N)(=O)=O)cc2F)cc1 = 3.14

---

Assay: Pharmacokinetic parameter Cmax was determined in male Wistar rat after 100 mg/kg oral dose of the compound
Type: ADME, organism-based
Design: dose 100 mg/kg, route oral
Settings: in vivo
quantity: Cmax (µg/mL)

Some solved entries appear below for comparison.
COc1ccc(-c2cc(C(F)(F)F)nn2-c2ccc(S(N)(=O)=O)cc2F)cc1 = 3.3
Cc1ccc(-c2cc(C(F)(F)F)nn2-c2ccc(S(N)(=O)=O)cc2)cc1 [CELECOXIB] = 2.47

(A) CSc1ccc(-c2cc(C(F)(F)F)nn2-c2ccc(S(N)(=O)=O)cc2F)cc1
(B) CS(=O)(=O)c1ccc(C2=C(c3ccccc3)C(=O)OC2)cc1 [ROFECOXIB]
Query block: Choose between A and B : whose measured Cmax value is numerically larger? Write down the label of the entry you select.
Result block: B
